Test system: Human papillomavirus type 1a protein E7 (residues 44-93)
assay_info: HPV1a E7 fragment binders on microarrays, primary screen, biochemical, small-molecule microarray, residues 44-93, 635 nm fluorescence (AID 1108);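 further: E7 fragment applied at 1 µg/mL in TBST for 1 h at 4 C; score combines spot fluorescence with its signal to noise ratio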
settings: small-molecule microarray binding, fluorescence 635 nm; higher = more signal
The label depends only on composite z-score: MET if it is at least 0.08, NOT MET if it is smaller.

molecule: C=C(COC)/C(=C/C[C@H](OC(C)=O)c1cccc(OCCO)c1)c1cc(C(=O)OC)ccc1OC
category_label: NOT MET

molecule: NC(=O)N1C(=O)C2C(C1=O)C1C=C(c3ccc(CO)cc3)C2C(C2CC2)N1Cc1cc2c(cc1Br)OCO2 (configuration not stated)
category_label: NOT MET

molecule: CC(=O)OC(C/C=C\B1OC(C)(C)C(C)(C)O1)c1ccccc1 (configuration not stated)
category_label: NOT MET

molecule: C[N+](C)(C)CCCC[C@@H]1NC(=O)[C@@H]2C[C@H](C(=O)NCCCCCNC(=O)CS)[C@H](c3ccc(O)cc3)N2C1=O
category_label: NOT MET

molecule: C=C(CCCC)/C(=C/C[C@@H](OC(=O)c1ccncc1)c1ccc(OCCO)cc1)c1cnc2ccccc2c1
category_label: MET

molecule: O=C(O)[C@H]1C[C@H]2C(=O)NCC(=O)N2[C@H]1c1cccc(OCCO)c1
category_label: MET

molecule: CC(C)C(CO)N1C(=O)[C@@H]2[C@H]3C(=O)OCC=C[C@H]3OC23C=CCN(Cc2ccccc2)C(=O)[C@@H]13 (some centres not stated)
category_label: NOT MET

molecule: C=CCNC(=O)[C@H]1[C@@H]2C(=O)O[C@@H](c3ccccc3)[C@@H](c3ccccc3)N2[C@@H](c2ccc(OCCO)cc2)[C@]12C(=O)Nc1ccc(C#CCCO)cc12
category_label: MET

molecule: C=C(/C(=C/C[C@H](OC(C)=O)c1cccc(OCCO)c1)c1cc(C(=O)OC)ccc1OC)C(C)C
category_label: NOT MET

molecule: CCCCCN1CC=CC23O[C@@H]4/C=C\CCC(C)OC(=O)C4[C@H]2C(=O)N(CCO)[C@@H]3C1=O (some centres not stated)
category_label: MET

molecule: COCCCNC(=O)[C@@]1(Cc2ccccc2CN=[N+]=[N-])COC(c2ccc(OCCCO)cc2)=N1
category_label: MET

molecule: CCCC[C@@H](O)C1=C(C)C[C@H]2C(=O)N(C)C(=O)[C@H]2[C@H]1CO
category_label: MET

molecule: CC(C)(C)OC(=O)CC[C@@]12N=C(c3ccc(OCCCO)cc3)O[C@@H]1c1ccccc1N(Cc1ccccc1)C2=O
category_label: NOT MET

molecule: C=CCN1C(=O)[C@@]2(O[C@@H](CCn3cc(CCO)nn3)[C@H]([Si](C)(C)c3ccc(OC)cc3)[C@H]2C)c2cc(NC(=O)c3ccc(OC)cc3)ccc21
category_label: MET

molecule: COCCOC(=O)N1C(=O)[C@@]2(c3cc(C#CC4(O)CCCCCC4)ccc31)[C@H](C(=O)NC[C@H](O)c1ccccc1)[C@H]1C(=O)O[C@H](c3ccccc3)[C@H](c3ccccc3)N1[C@@H]2c1ccccc1OCCO
category_label: MET

molecule: COc1ccc([Si](C)(C)[C@H]2[C@H](CCO)O[C@@]3(C(=O)N(Cc4ccc(N5C(=O)c6cccc7cccc5c67)cc4)c4ccccc43)[C@@H]2C)cc1
category_label: MET

molecule: COc1ccc([Si](C)(C)[C@H]2[C@H](CC(=O)N(CCO)Cc3ccccc3)O[C@@]3(C(=O)N(Cc4ccc(N5CCOC5=O)cc4)c4ccccc43)[C@@H]2C)cc1
category_label: MET

molecule: O=C1c2ccccc2[C@](Cc2ccccc2I)(C(=O)O)[C@H](c2ccc(CO)cc2)N1Cc1ccccc1Cl
category_label: MET

molecule: CC(C)C(CO)N1C(=O)[C@@H]2C3C(=O)OCCC/C=C\[C@H]3OC23C=CCN(C(C)C)C(=O)[C@@H]13 (some centres not stated)
category_label: NOT MET

molecule: CCOC(=O)C[C@H]1[C@H](OC(=O)c2ccc(C(=O)c3ccccc3)cc2)[C@@H](NC(=O)Cc2ccc(OC)cc2)c2cc(OCCCO)ccc2N1C(=O)Cc1ccc(OC)cc1
category_label: MET

molecule: C[C@@H](OCc1ccccc1)C1NC(=O)[C@@]23C(=O)N[C@@H](Cc4ccccc4)C2[C@H](C)[C@@]2(C)O[C@H]2C3/C=C/C/C=C\CNC(=O)[C@@H]2CCCN2C1=O (some centres not stated)
category_label: NOT MET

molecule: CCN(CC)c1ccc(N2CC=CC34O[C@@H]5C=CCOC(=O)[C@@H]5[C@H]3C(=O)N(C(C)CO)[C@@H]4C2=O)cc1 (some centres not stated)
category_label: NOT MET

----------
assay_info: small-molecule microarray binders of probe aCHRDL2, primary screen, biochemical, biotinylated probe, 635/667 nm fluorescence (AID 1100)
settings: higher = more signal

compound: CCCNC(=O)[C@@]1(Sc2ccc(C)cc2)CC(=O)N(Cc2cc(C(F)(F)F)cc(C(F)(F)F)c2)[C@@H]1c1ccc(CO)cc1I
composite z-score: 1.11

compound: COC(=O)C1=CC(CCCO)=CC(C2CC2)N(Cc2cc3c(cc2Br)OCO3)C=C1C(=O)OC (centres undefined)
composite z-score: 1.14

compound: COC(=O)c1c(CC[C@@H](CO)NC(=O)Nc2ccc(OC)cc2)oc(C(=O)Cc2ccccc2)c1C(=O)OC
composite z-score: -0.0477

compound: CC(C)[Si](C#C[Si](C(C)C)(C(C)C)C(C)C)(O[C@H](C)c1cn([C@H](C)c2ccccc2)nn1)C(C)C
composite z-score: 0.351

compound: COc1ccc(C#Cc2ccc3c(c2)[C@]2(C(=O)N3)[C@H](c3ccc(O)cc3)N3[C@H](c4ccccc4)[C@H](c4ccccc4)OC(=O)[C@H]3[C@@H]2C(=O)N2CCN(c3ncccn3)CC2)cc1
composite z-score: 0.657

compound: CC(C)(C)OC(=O)CC[C@@]1(C(=O)N2CCOCC2)N=C(c2ccc(OCCCO)cc2)O[C@@H]1c1ccccc1
composite z-score: 1.36

compound: COCCCNC(=O)[C@@]1(CCS(=O)(=O)c2ccccc2)N=C(c2ccc(OCCCO)cc2)O[C@H]1c1ccccc1CN=[N+]=[N-]
composite z-score: 1.12

compound: C=CC[C@@H](OC(=O)Nc1ccc(SC)cc1)c1ccc(OCCO)cc1
composite z-score: 1.29

compound: CO[C@H]1O[C@H](CO)[C@@H](OC(=O)Nc2ccccc2)[C@H](OC(=O)Nc2ccccc2-c2ccccc2)[C@H]1OC(=O)Nc1ccccc1-c1ccccc1
composite z-score: 0.91

compound: COc1ccc(C#Cc2ccc3c(c2)[C@]2(C(=O)N3)[C@H](c3ccc(O)cc3)N3[C@H](c4ccccc4)[C@H](c4ccccc4)OC(=O)[C@H]3[C@@H]2C(N)=O)cc1
composite z-score: 0.698

compound: C=CC[C@]1(C(=O)N(C)C)N=C(c2ccc(OCCCO)cc2)O[C@H]1c1ccccc1CN=[N+]=[N-]
composite z-score: 1.09

compound: COCCOC(=O)N1C(=O)[C@@]2(c3ccccc31)[C@H](C(=O)Nc1nc3ccccc3s1)[C@H]1C(=O)O[C@H](c3ccccc3)[C@H](c3ccccc3)N1[C@@H]2c1ccc(O)cc1
composite z-score: 0.361

compound: CC(C)N1C(=O)c2ccccc2[C@@H](C(=O)NCc2ccccc2)[C@@H]1c1ccc(CO)cc1
composite z-score: 0.932

compound: CC(C)[C@@H](C(=O)O)n1cc(-c2ccccn2)nn1
composite z-score: 0.33

compound: CCCCC(=C=CC[C@@H](O)c1ccc(OCCO)cc1)C[C@@H](O)c1cc(Cl)cc(Cl)c1O
composite z-score: 0.577

compound: CN1C=C(C(=O)OCCS(C)(=O)=O)C(C(=O)OCCS(C)(=O)=O)=CC(CCCO)=CC1c1cccs1 (centres undefined)
composite z-score: -0.707

compound: C=CCN1C(=O)[C@@]2(O[C@@H](CCO)[C@H]([Si](C)(C)c3ccc(OC)cc3)[C@H]2C)c2cc(N(C=O)c3ccccc3)ccc21
composite z-score: 0.453

compound: O=C(NO)[C@]1(Cc2ccccc2)N=C(c2ccc(OCCCO)cc2)O[C@@H]1c1ccccc1
composite z-score: 0.694

compound: CCOC(=O)C[C@H]1[C@H](OC(=O)c2ccc(C(=O)c3ccccc3)cc2)[C@@H](NC(=O)Cc2ccc(OC)cc2)c2cc(OCCCO)ccc2N1C(=O)Cc1ccc(OC)cc1
composite z-score: 0.949

compound: COC(=O)C1=CC(c2ccc(CO)cc2)=CC(C2CC2)N(C)C=C1C(=O)OC (centres undefined)
composite z-score: 0.542

compound: C[N+](C)(C)CCCCNC(=O)[C@@H]1C[C@@H]2C(=O)NCC(=O)N2[C@@H]1c1cccc(OCCO)c1
composite z-score: -0.211

compound: CN(C)CCCC[C@@H]1NC(=O)[C@@H]2C[C@H](C(=O)NCCCCCNC(=O)CS)[C@H](c3cccc(OCCO)c3)N2C1=O
composite z-score: -0.305

compound: O=C(NCC(F)(F)F)[C@@H]1c2ccccc2C(=O)N(C2Cc3ccccc3C2)[C@H]1c1ccc(CO)cc1
composite z-score: 0.715

compound: CC(C)CNC(=O)[C@@H]1c2ccccc2C(=O)N(Cc2ccc(OC(F)(F)F)cc2)[C@H]1c1ccc(CO)cc1
composite z-score: 0.922
